# assay_remarks: yeast display, Sf9 membrane polyspecificity reagent, FACS + sequencing; frameworks hold sequencing errors
observation_type: polyreactivity (PSR sort gate)

Below, each entry is followed by its recorded polyreactivity (PSR sort gate) result.
INSERT INTO assay_data (sequence_entry, observation_type, result) VALUES
  ('QVQLVESGGGLVQAGGSLRLSCAASGRTFKYYGMGWYRQAPGKERELVATISRSSSRTYYADSVKGRFTISRDNAKNTVYLQMNSLKPEDTAFYYCATLGPRSYAYDYWGQGTQVTVSS', 'polyreactivity (PSR sort gate)', 'high polyreactivity'),
  ('QVQLVESGGGLVQAGGSLRLSCAASGSTFAVYAMGWSRKAPGKERELVATIRWSAGRTYYADSVKGRFTISRDNAKNTVYLQMNSLKPEDTAVYYCAARTWGQSTYGQGLDYWGQGTQVTVSS', 'polyreactivity (PSR sort gate)', 'high polyreactivity'),
  ('QVQLVESGGGLVQAGGSLRLSSAASGSTSDNAMGWYRQAPGKEMEFVAAITSSGGSTTYADSVKGRFTISRDNAKNTVYLQMNSLKPEDTAVYYCNAGRVYYSNGYDYWGQGTQVTVSS', 'polyreactivity (PSR sort gate)', 'low polyreactivity'),
  ('QVQLVESGGGLVQAGGSLRLSCAASGSIYRYNDMGWYRQAPGKERELVATITSGTNTYYADSVKGRFTISRDNAKNTVYLQMNSLKPEDTAVYYCAKSYIAWDGRTFEEMYYWGQGTQVTVSS', 'polyreactivity (PSR sort gate)', 'low polyreactivity'),
  ('QVQLVESGGGLVQAGGSLRLICAASGLTFYRYAMGWYRQGPGKERELVAGITRRGGSTYYADSVKGRFTISRDKPKNTVYLPMNSLKPEDTAVYYCNVDGISSSYPEMDYWGQGTQVTVSS', 'polyreactivity (PSR sort gate)', 'low polyreactivity'),
  ('QVQLVESGGGLVQAGGSLRLSCAASGSIFTKYAMGWYRQAPGKERELVAGISRTTGSTYYADSVKGRFTISRDNAKNTVYLQMNSLKPEDTAVYYCAALSYRRGISRDGGYDYWGQGTQVTVSS', 'polyreactivity (PSR sort gate)', 'high polyreactivity'),
  ('QVQLVESGGGLVQAGGSLRLSCAASGSIFPLYAMGWYRQAPGKERELDASITWSAGNTHYADSVKGRFTISRDNAKNTVYLQMNSLKPEDTAVYYCAADDLWLYYVDDLPINDFDYWGQGTQVTVSS', 'polyreactivity (PSR sort gate)', 'low polyreactivity'),
  ('QVQLVESGGGLVQAGGSLRLSCDASGSTFLTNTMGWYRQAPGKERELVAAISSGDSTYYADSVKGRFTISRDNAKNTVYLQLNSLKPEVTAVYYCARDGGWRNVPRDYWGQGTQVTVSS', 'polyreactivity (PSR sort gate)', 'low polyreactivity'),
  ('QDQLVESGGGLVQAGGSLRLSCAASGRTFVSYVMGGYRQAPGKERELVAAIRRRGGRTYYSDSVKGRFTISRDNAKNTVYLQMNSLKPEDTAVYYCAAAQPGTNAYRVGSWGQGTQVSVSS', 'polyreactivity (PSR sort gate)', 'high polyreactivity'),
  ('QVQLVESGGGLVQAGGSLRLSCAASGRIFYHYAMGWYRQAPGKERELVAVIRSTGSTNYADSVKGRFTISRDNAKNTVYFQLKSLIPEDTAVYYCAVRRATFSYWYFNGGYWGQGTQVTVSS', 'polyreactivity (PSR sort gate)', 'high polyreactivity');

### Prompt What value of polyreactivity (PSR sort gate) has been recorded for this entry: QVQLVESGGGLVQAGGSLRLSCAASGGIFWYYAMGWYRQAPGKERELVAGISRGGGTYYADSVKGRFTISRDNAKNTVYLQMNSLKPEDTAVYYCAVDGRYAYAYEYWGQGTQVTVSS
### Response low polyreactivity

### Prompt What value of polyreactivity (PSR sort gate) has been recorded for this entry: QVQLVESGGGLGQAGGSLRLSFAASGRTFWYNAMGWYRQAPGKERELVAAISNGGSTNYADSVKGRFTISRDYATNTVYLQMNSVKPEDTAVDYCNAGLYRSPYPGRLGSRYDYWGQGTQVTVSS
### Response high polyreactivity

### Prompt What value of polyreactivity (PSR sort gate) has been recorded for this entry: QVQLVESGGGLVQAGGSLRLSCAASGSIFKRNAMGWYRQAPGKERELVASISWSGTRTYYADSVKGRFTISRDKAKNTVYFQMNSLKPEDTAVYYCARRIYGGHPCQSTQGDFYYWGQGTQVTVSS
### Response high polyreactivity

### Prompt What value of polyreactivity (PSR sort gate) has been recorded for this entry: QVQLVESGGGLVQAGGSLRLSCAASGRTFQFYAMGWYRQAPGKERELVAAITSGGSTYYADSVKGRFTISRDNAKNTVYLQMNSLKPEDTAVYYCNAKYNGYYRRFSEYDYWGQGTQVTVSS
### Response high polyreactivity

### Prompt What value of polyreactivity (PSR sort gate) has been recorded for this entry: QVQLVESGGGLVQAGGSLRLSCAASGRIFGSYAMGWYRQAPGKERELVAAISGGGSTNYADSVKGRFTISRDNAKNTVYLQMNSLKPEDSAVYYCTADRGFAVIVLYGYWGQGTQVTVSS
### Response low polyreactivity
